Would you mind telling me the reported IC50 of each entry?
Test system: 922993-354-T-J3-PDC complex spheroids, viability
Test: Anticancer human tumor 922993-354-T-J3-PDC patient-derived endometrial carcinoma cell line growth inhibition [GQUAD]
Conditions: curve of first compound; second compound 1 µM
Source text: DNA G-quadruplex Stabilizer Agents in Combinations in Complex Spheroids A high-throughput screen of multi-cell type tumor spheroids was designed to identify active combinations of DNA G-quadruplex stabilizer agents and targeted small molecules. […] Compounds. […] If the clinical Cmax for an agent had not been determined, the highest concentration tested was 10 microM. […]
Numbers only, in µM.

Consider the worked cases shown below.
{"Molecule": "COc1ccc([C@@H](O)c2cc(-c3ncnc4cc(N5CCOCC5)ccc34)c(F)cc2Cl)nn1 + Cc1cnc(CNC(=O)c2c(=O)c3ccc(N4CCCN(C)CC4)nc3n3c2sc2ccccc23)cn1", "Tested Target": "922993-354-T-J3-PDC complex spheroids, viability", "IC50 [µM]": 3.99}
{"Molecule": "CC1COCCN1c1cc(-c2ccnn2C)c2ccnc(-c3ccn[nH]3)c2n1 (stereo not given) + Cc1[nH]c2ccc(F)cc2c1-c1nc2c3cccnc3c3ncccc3c2[nH]1", "Tested Target": "922993-354-T-J3-PDC complex spheroids, viability", "IC50 [µM]": 0.243}

Input line: // Input: CC(C)n1c(=O)n(C)c2cnc3cc(F)c(-c4ccc(OCCCN5CCCCC5)nc4)cc3c21 + Cc1cnc(CNC(=O)c2c(=O)c3ccc(N4CCCN(C)CC4)nc3n3c2sc2ccccc23)cn1 . Output its IC50 only.
Output line: 0.48

---

test system: 922993-354-T-J3-PDC complex spheroids, viability; test: Anticancer human tumor 922993-354-T-J3-PDC cell line growth inhibition [GQUAD]; details: second compound 0.1 µM; first compound 10 µM; stronger effect = lower value;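 also: spheroids exposed to compounds for seven days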;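 as to viability, T/C: 100% = DMSO vehicle control viability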
Quantity Kind: viability, T/C (%)
Numbers only, in %.

{"Compound": "CC(C)n1c(=O)n(C)c2cnc3cc(F)c(-c4ccc(OCCCN5CCCCC5)nc4)cc3c21 + CN(C)c1ccc(Nc2c3ccc(NC(=O)CCN4CCCC4)cc3nc3cc(NC(=O)CCN4CCCC4)ccc23)cc1", "viability, T/C [%]": 59}

Please give viability, T/C, item by item, for the list that follows.
1. CC(=O)O[C@H]1C(=O)[C@@]2(C)[C@H]([C@H](OC(=O)c3ccccc3)[C@]3(O)C[C@H](OC(=O)[C@H](O)[C@@H](NC(=O)c4ccccc4)c4ccccc4)C(C)=C1C3(C)C)[C@]1(OC(C)=O)CO[C@@H]1C[C@@H]2O + Cc1[nH]c2ccc(F)cc2c1-c1nc2c3cccnc3c3ncccc3c2[nH]1
2. C=CCn1c(=O)c2cnc(Nc3ccc(N4CCN(C)CC4)cc3)nc2n1-c1cccc(C(C)(C)O)n1 + CN(C)c1ccc(Nc2c3ccc(NC(=O)CCN4CCCC4)cc3nc3cc(NC(=O)CCN4CCCC4)ccc23)cc1
3. CC1COCCN1c1cc(C2(O)CC3CCC(C2)O3)c2cnn(-c3ccn[nH]3)c2n1 (centres undefined) + CN(C)c1ccc(Nc2c3ccc(NC(=O)CCN4CCCC4)cc3nc3cc(NC(=O)CCN4CCCC4)ccc23)cc1

Output line:
1: 49.6; 2: 13.9; 3: 22

---

system: 922993-354-T-J3-PDC complex spheroids, viability; test: Anticancer human tumor 922993-354-T-J3-PDC cell line growth inhibition [GQUAD]; conditions: second compound 3.16 µM; first compound 1 µM; stronger effect = lower value;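 also: spheroids exposed to compounds for seven days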;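 as to viability, T/C: 100% = DMSO vehicle control viability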
Quantity Kind: viability, T/C (%)
Answers are plain numbers, in %.

Consider the worked cases shown below.
{"Compound": "CC1COCCN1c1cc(C2(O)CC3CCC(C2)O3)c2cnn(-c3ccn[nH]3)c2n1 (stereo not given) + Cc1cnc(CNC(=O)c2c(=O)c3ccc(N4CCCN(C)CC4)nc3n3c2sc2ccccc23)cn1", "viability, T/C, %": 29.4}
{"Compound": "C=CC(=O)N1CCN(c2nc(=O)n(-c3c(C)ccnc3C(C)C)c3nc(-c4c(O)cccc4F)c(F)cc23)C(C)C1 (stereo not given) + Cc1cnc(CNC(=O)c2c(=O)c3ccc(N4CCCN(C)CC4)nc3n3c2sc2ccccc23)cn1", "viability, T/C, %": 51.3}
{"Compound": "C#Cc1c(F)ccc2cc(O)cc(-c3ncc4c(N5CC6CCC(C5)N6)nc(OCC56CCCN5CC(F)C6)nc4c3F)c12 (stereo not given) + Cc1[nH]c2ccc(F)cc2c1-c1nc2c3cccnc3c3ncccc3c2[nH]1", "viability, T/C, %": 107}
{"Compound": "CC(C)(O)C1CCC(Nc2ccc3ncc(-c4cccc(C(F)(F)F)c4)n3n2)CC1 (stereo not given) + CN(C)c1ccc(Nc2c3ccc(NC(=O)CCN4CCCC4)cc3nc3cc(NC(=O)CCN4CCCC4)ccc23)cc1", "viability, T/C, %": 94.3}

Input line: // Input: COc1cccc2c1C(=O)c1c(O)c3c(c(O)c1C2=O)CC(O)(C(=O)CO)CC3OC1CC(N)C(O)C(C)O1 (stereo not given) + Cc1[nH]c2ccc(F)cc2c1-c1nc2c3cccnc3c3ncccc3c2[nH]1 . Output its viability, T/C only.
Output line: 88.7
